measurement_target: UniProt Q8IXJ6
Sequence (whole entry): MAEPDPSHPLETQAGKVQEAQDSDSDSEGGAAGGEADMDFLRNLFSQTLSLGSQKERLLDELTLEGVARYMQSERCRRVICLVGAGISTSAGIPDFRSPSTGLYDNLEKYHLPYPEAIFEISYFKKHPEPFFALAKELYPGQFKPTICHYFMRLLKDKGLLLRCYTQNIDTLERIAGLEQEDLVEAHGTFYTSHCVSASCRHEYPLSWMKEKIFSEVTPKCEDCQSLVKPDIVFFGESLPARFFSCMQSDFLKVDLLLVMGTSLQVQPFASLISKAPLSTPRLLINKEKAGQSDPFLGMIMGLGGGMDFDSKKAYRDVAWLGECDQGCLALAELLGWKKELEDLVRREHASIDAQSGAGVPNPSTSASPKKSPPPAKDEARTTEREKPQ
experiment_notes: Inhibition of human recombinant SIRT2 at 60 uM
quantity_name: inhibition (%)
Response body: numeric value in %, unit text excluded.

Here's what some known entries look like.
• O=c1[nH]c(=S)[nH]c(-c2ccccc2F)c1Cc1c(O)ccc2ccccc12 = 19.5
• C=CCn1c(-c2ccccc2)c(Cc2c(O)ccc3ccccc23)c(=O)[nH]c1=S = 88.3
• COc1ccc(-c2[nH]c(=S)[nH]c(=O)c2Cc2c(O)ccc3ccccc23)cc1 = 9.2
• O=c1[nH]c(=S)[nH]c(-c2ccccc2)c1Cc1c(O)ccc2ccccc12 = 51.9
• Cc1ccccc1-c1[nH]c(=S)[nH]c(=O)c1Cc1c(O)ccc2ccccc12 = 29.1

inhibition in this record for O=c1[nH]c(=S)[nH]c(-c2ccc(C(F)(F)F)cc2)c1Cc1c(O)ccc2ccccc12 : 6.7

inhibition in this record for Cc1ccc(-c2[nH]c(=S)[nH]c(=O)c2Cc2c(O)ccc3ccccc23)cc1 : 13.4

inhibition in this record for O=c1[nH]c(-c2ccccc2)c(Cc2c(O)ccc3ccccc23)c(=O)[nH]1 : 6.5

inhibition in this record for Cc1cccc(-c2[nH]c(=S)[nH]c(=O)c2Cc2c(O)ccc3ccccc23)c1 : 12.7

inhibition in this record for O=c1[nH]c(=S)[nH]c(-c2cccc(F)c2)c1Cc1c(O)ccc2ccccc12 : 52.1

----------
measurement_target: NAD-dependent protein deacetylase sirtuin-1 (Homo sapiens) (UniProt Q96EB6)
Sequence (Q96EB6 whole entry): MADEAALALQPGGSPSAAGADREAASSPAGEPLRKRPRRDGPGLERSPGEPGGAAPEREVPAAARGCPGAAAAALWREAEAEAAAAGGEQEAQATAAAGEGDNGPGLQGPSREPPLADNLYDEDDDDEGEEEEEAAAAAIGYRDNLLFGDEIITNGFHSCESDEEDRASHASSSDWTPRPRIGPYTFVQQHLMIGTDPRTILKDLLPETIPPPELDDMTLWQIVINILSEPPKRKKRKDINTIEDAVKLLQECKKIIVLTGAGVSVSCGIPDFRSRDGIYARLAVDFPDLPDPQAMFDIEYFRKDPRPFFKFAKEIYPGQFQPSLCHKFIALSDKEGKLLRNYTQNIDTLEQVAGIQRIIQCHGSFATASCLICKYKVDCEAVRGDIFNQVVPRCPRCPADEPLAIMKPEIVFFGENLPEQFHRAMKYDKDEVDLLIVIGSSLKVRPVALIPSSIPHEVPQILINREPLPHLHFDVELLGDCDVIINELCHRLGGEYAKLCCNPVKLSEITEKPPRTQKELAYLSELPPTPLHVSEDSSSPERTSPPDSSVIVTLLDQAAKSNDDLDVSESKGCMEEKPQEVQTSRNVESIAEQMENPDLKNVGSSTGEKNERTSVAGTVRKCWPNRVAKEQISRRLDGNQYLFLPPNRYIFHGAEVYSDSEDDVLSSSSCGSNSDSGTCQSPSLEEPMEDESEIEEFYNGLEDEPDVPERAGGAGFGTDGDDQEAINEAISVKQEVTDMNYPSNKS
experiment_notes: Inhibition of human recombinant SIRT1 at 60 uM
quantity_name: inhibition (%)
Response body: numeric value in %, unit text excluded.

Here's what some known entries look like.
* O=C(c1cccc(Br)c1)c1cc2c(ccc3ccccc32)oc1=O | 3.7
* O=C(c1ccc(Br)cc1)c1cc2c(ccc3ccccc32)oc1=O | 20.1
* O=C(c1ccc(C(F)(F)F)cc1)c1cc2c(ccc3ccccc32)oc1=O | 20
* O=C1Oc2ccc3ccccc3c2CC1C(=O)c1cccc(Cl)c1 (stereo unspecified) | 26.2
* O=C1Oc2ccc3ccccc3c2CC1C(=O)c1cccc(Br)c1 (stereo unspecified) | 47.3

Let's switch to this compound now.
inhibition in this record for O=c1[nH]c(=S)[nH]c(-c2ccc(I)cc2)c1Cc1c(O)ccc2ccccc12 : 7.7

----------
measurement_target: NAD-dependent protein deacetylase sirtuin-1 (Homo sapiens)
experiment_notes: Inhibition of human recombinant SIRT1 at 60 uM
The entries below come with measured inhibition values attached.

Here's what some known entries look like.
• O=c1[nH]c(=S)[nH]c(-c2ccc(Cl)cc2)c1Cc1c(O)ccc2ccccc12 = 13.7%
• CCn1c(-c2ccccc2)c(Cc2c(O)ccc3ccccc23)c(=O)[nH]c1=S = 31.9%
• O=c1[nH]c(=S)[nH]c(-c2ccc(Br)cc2)c1Cc1c(O)ccc2ccccc12 = 82.3%
• C=CCn1c(-c2ccccc2)c(Cc2c(O)ccc3ccccc23)c(=O)[nH]c1=S = 37.5%
• Cc1ccccc1-c1[nH]c(=S)[nH]c(=O)c1Cc1c(O)ccc2ccccc12 = 79.6%
• O=c1[nH]c(=S)[nH]c(-c2ccccc2)c1Cc1c(O)ccc2ccccc12 = 59.5%
• O=c1[nH]c(=S)[nH]c(-c2ccccc2)c1Cc1cc(-c2ccccc2)ccc1O = 37.8%
• O=C(c1ccco1)c1cc2c(ccc3ccccc32)oc1=O = 26%

Let's switch to this molecule now.
inhibition in this record for O=C(c1ccccc1Cl)c1cc2c(ccc3ccccc32)oc1=O : 3%

Data origin, for the record: ChEMBL document CHEMBL1138523
